Tested on: PC-3 prostate
Assay: NCI-60 one-dose screen, 48 h
Details: 10 µM unless noted
Compounds without any hit were thinned out: in the full panel of roughly 83,000, 20% have a hit. Active and inactive are the calls of the source. The calls were made as follows: active = growth percent below 10; inactive = the rest.
Answer with one of the outcomes active, inactive

> print(dat)
                                   molecule     class
1  CCCCCCCCCCCCCC[n+]1ccc2c(C)c3c(c(C)c2c1)c1cc(O)ccc1n3CC    active
2  COc1cccc(C2C(C#N)=C(N)Oc3c2ccc2ccccc32)c1 (stereo not given)  inactive
3  CC/C(=C(/c1ccc(Cl)cc1)c1ccc(OCCN2CCCCCC2)cc1)c1ccccc1  inactive
4  CCOC(=O)c1ccc2c(c1)[n+](=O)c(C(C)=O)c(C(F)(F)F)n2[O-]    active
5      COc1ccc(CNc2c3ccccc3nc3ccccc23)cc1OC  inactive

Query: What call does the record list for CC1=C(C(=O)OCc2ccccc2)C(c2ccc3c(c2)OCO3)n2c(nc3ccccc32)N1 (stereo not given) ?
Result: inactive

Query: Called result for `Cc1oc2ccc(O)c(CN3CCCCCC3)c2c1C(=O)Nc1ccc(C(F)(F)F)cc1`
Result: inactive

Query: How was `C=CCNc1ccc2c3c(cccc13)C(=O)N(CC=C)C2=O` classified in this test?
Result: inactive

Query: Returns: the outcome recorded for `CN(C)c1ccc(/C=C/C2=[N+](C)c3ccccc3C2(C)C)cc1` in this assay.
Result: active

Query: # fetch the recorded call for `C#C[C@]1(O)CC[C@H]2[C@@H]3CC=C4c5sc(-c6ccccc6)nc5CC[C@]4(C)[C@H]3CC[C@@]21C` here
Result: inactive

* * *

System: OVCAR-3 ovarian
Assay: NCI-60 one-dose screen, 48 h
Conditions: 10 µM unless noted
Experimental: Growth inhibition of the OVCAR-3 human tumor cell line is measured as a screen for anti-cancer activity. Cells are grown in 96 well plates and exposed to the test compound for 48 hours. Compounds are tested at a single concentration, which is 10^-5 M for most compounds. The reported endpoint is percent growth (GI% or GIPRCNT), where numbers from 0 - 100% represent growth inhibition, and numbers from -100% - 0 represent cell death. For example, a value of 40 represents 60% growth inhibition. […]
Compounds without any hit were thinned out: in the full panel of roughly 83,000, 20% have a hit. Calls of active or inactive are those of the source. Rule for the calls: active = growth percent below 10; inactive = the rest.
The reply should be one of these categories: Yes (active), No (inactive)

> print(dat)
                                   compound  class
1    Cn1ncc(CC(=O)O)c1-n1nnc2cc(Cl)ccc2c1=O     No
2  O=C(Nc1cccc(Cl)c1)Oc1c(Cl)c(Cl)c(Cl)c(Cl)c1Cl     No
3  COc1ccccc1NC(=O)n1c(=O)cc(C)c2ccc(O)cc21     No

Query: Assay outcome for `O=C1/C(=C/c2ccc(-c3ccc(Cl)cc3)o2)SC(=S)N1CCc1ccc(O)cc1` : what was it?
Result: No

* * *

Tested on: SNB-75 CNS
Assay: NCI-60 one-dose screen, 48 h (100 = growth as untreated, 0 = no growth, -100 = all killed)
Conditions: 10 µM unless noted
About 83,000 compounds went through this panel and 20% of them were active in at least one assay; those are over-represented in the sample as a whole.
Hi! Just check whether growth is below 30%. Below gives fulfilled, equal or above gives not fulfilled.

> print(dat)
                                   compound          class
1  C#C[C@]1(O)CC[C@H]2[C@@H]3CC=C4c5sc(-c6ccccc6)nc5CC[C@]4(C)[C@H]3CC[C@@]21C  not fulfilled
2  CCOC(=O)C1=CCC(n2cc(F)c(=O)[nH]c2=O)O1 (centres undefined)  not fulfilled
3  COc1cc(/C=C2\CN(S(=O)(=O)c3ccc(C)cc3)C/C(=C\c3cc(CN4CCCC4)c(O)c(OC)c3)C2=O)cc(CN2CCCC2)c1O  not fulfilled

Query: Does `COc1cc(CNC(=O)CCCC/C=C/C(C)C)ccc1OCc1cn(-c2ccc(C(F)(F)F)cc2)nn1` have growth strictly under 30%?
Result: not fulfilled

Query: Determine if `CNC(=O)c1cc(Oc2ccc3nc(NC(=O)Nc4ccc(F)cc4F)sc3c2)ccn1` shows growth strictly lower than 30%.
Result: fulfilled

Query: # TODO verify growth < 30% strictly for this compound: `Nc1ccc(Cl)c2c(=O)c3ccccc3[nH]c12`
Result: not fulfilled

Query: Criterion: growth strictly below 30%. Is it met by `Nc1ccc(N)c2c1C(=O)c1cccc([N+](=O)[O-])c1C2=O` ?
Result: fulfilled

Query: Does `O=C(/C=C/c1ccco1)Nc1ncc(Cc2ccc(F)cc2)s1` have growth strictly under 30%?
Result: fulfilled

Query: Hi there! Is growth for `CN1CCN(Cc2ccc(NC(=O)c3cc(C#Cc4cnc(N)c5ncccc45)n(C)n3)cc2C(F)(F)F)CC1` below 30%, do you know?
Result: not fulfilled

Value source: PubChem BioAssay (NCI)
